The measurements presented in this section are drawn from paper PMC10399917.

Entries annotated with measured IC50
# study system: TMPRSS2–SPIKE interaction (His-TMPRSS2 and SPIKE-FLAG) (Severe acute respiratory syndrome coronavirus 2, UniProt P0DTC2)
# assay remarks: biochemical
# Assay type: binding, SARS-CoV-2
# conditions used: IC50, TR-FRET signal
Numeric answer only, unit µM assumed.

{"columns": ["molecule", "IC50 / µM"],
 "data": [
  ["O=C(/C=C/c1ccc(O)c(O)c1)OCCc1ccccc1", 13.8]
]}

Switching to the query record.
Enquiry: So what does the record say about IC50 for Cc1cc2c(C(C)C)c(O)c(O)c(C=O)c2c(O)c1-c1c(C)cc2c(C(C)C)c(O)c(O)c(C=O)c2c1O [gossypol acetate] ?
Return: 0.69
